Assay: Intranasal bioavailability of hydrocodone conjugates in rats
Details: relative to hydrocodone
No end group written: not given here.
Label scheme for bioavailability (% HC) IN AUC: lower than 50 % HC is condition not met, 50 % HC and above is condition met.

Solved entries (count: 10):
* Glu-Glu-Gly-Gly-Phe-HC (EEGGF-hydrocodone) | condition met
* Glu-Glu-Ile-HC | condition met
* Glu-Glu-Phe-Phe-Ile-HC (EEFFI-hydrocodone) | condition met
* Gly-Gly-Glu-Glu-Ile-HC (GGEEI-hydrocodone) | condition met
* Leu-Pro-Phe-HC | condition met
* Lys-Lys-Pro-Pro-Ile-HC (KKPPI-hydrocodone) | condition met
* Lys-Lys-Asp-Asp-Ile-HC (KKDDI-hydrocodone) | condition not met
* Asp-Asp-Ile-HC | condition met
* Tyr-Tyr-Phe-Phe-Ile-HC | condition not met
* Glu-Glu-Phe-Phe-Phe-Hydrocodone (EEFFF-hydrocodone) [Glu-Glu-Phe-Phe-Phe-HC] | condition not met

Is bioavailability (% HC) IN AUC for "Pro-Leu-Ile-HC" at or above 50 % HC? condition met

Is bioavailability (% HC) IN AUC for Asp-Asp-Phe-Phe-Ile-HC (DDFFI-hydrocodone) at or above 50 % HC? condition met

Is bioavailability (% HC) IN AUC for "Lys-Lys-Ile-HC" at or above 50 % HC? condition met

Is bioavailability (% HC) IN AUC for "Pro-Pro-Leu-HC" at or above 50 % HC? condition not met

Is bioavailability (% HC) IN AUC for Asp-Asp-Gly-Gly-Ile-HC (DDGGI-hydrocodone) at or above 50 % HC? condition not met

Is bioavailability (% HC) IN AUC for Gly-Gly-Pro-Pro-Ile-HC (GGPPI-hydrocodone) at or above 50 % HC? condition not met

Is bioavailability (% HC) IN AUC for Glu-Glu-Asp-Asp-Ile-HC (EEDDI-hydrocodone) at or above 50 % HC? condition met

Is bioavailability (% HC) IN AUC for Asp-Asp-Asp-Asp-Ile-HC (DDDDI-hydrocodone) at or above 50 % HC? condition not met

Is bioavailability (% HC) IN AUC for Tyr-Tyr-Pro-Pro-Ile-HC (YYPPI-hydrocodone) at or above 50 % HC? condition not met

Is bioavailability (% HC) IN AUC for "Tyr-Tyr-Ile-HC" at or above 50 % HC? condition not met

Is bioavailability (% HC) IN AUC for Asp-Asp-Pro-Pro-Ile-HC (DDPPI-hydrocodone) at or above 50 % HC? condition not met

Is bioavailability (% HC) IN AUC for "Pro-Ile-Ile-HC" at or above 50 % HC? condition met
